- methodSummary: Comparison of solubilities (saturated concentration by HPLC)
- Type: physicochemical
- measurementConditions: water, thermodynamic from solid
measuredAttribute: solubility thermodynamic at 16 h

molecule	reading
C[C@H]1[C@H](C)CC[C@]2(C(=O)O)CC[C@]3(C)C(=CC[C@@H]4[C@@]5(C)CCC(OP(=O)(O)O)C(C)(C)[C@@H]5CC[C@]43C)[C@H]12 (stereo partly shown) [ursolic acid phosphate, Ursolic acid phosphate]	20.1 µg/mL

====

- methodSummary: Comparison of solubilities (saturated concentration by HPLC)
- Format: physicochemical
- measurementConditions: water, thermodynamic from solid; Solvent DW; stirred 16 hours, 0.45-μm filter, HPLC; read-out: Saturated concentration

compound	solubility thermodynamic at 16 h
C[C@H]1[C@H](C)CC[C@]2(C(=O)O)CC[C@]3(C)C(=CC[C@@H]4[C@@]5(C)CC[C@H](O)C(C)(C)[C@@H]5CC[C@]43C)[C@H]12 [ursolic acid, reference compound]	< 1 µg/mL
